Where these numbers come from: PubChem BioAssay (NCI)

- Tested on: SNB-19 CNS
- assay.explanation: NCI tumour cell line growth inhibition, 48 h
quantity.measured: GI50

1) O=C1Nc2ccccc2/C1=C\c1nc(C2CCN(S(=O)(=O)c3ccc(F)cc3)CC2)n2ccccc12
3.99 µM
2) O=C1C(=O)c2ccccc2C(O)=C1CCCc1ccc(C2CCCCCC2)cc1
0.803 µM

# context switch: different compound, same GI50
[ask] Dear colleague, please send me the reported GI50 for Nc1nc(N)c2c(n1)NC(c1ccccc1)C1CCc3ccccc3C1=N2 (stereo not drawn) when you can.
[reply] 15.6 µM

###

List of TGI values.
- Test system: M14 melanoma
- assay.explanation: NCI tumour cell line growth inhibition, 48 h

1. Cc1cnc2c(c1)C(=O)C1=C(OC(C)(C)CC1O)C2=O (stereo unspecified)
30.5 µM
2. CC(C)C(C/C=C1/CC(CO)(COC(=O)c2ccccc2)OC1=O)C(C)C (stereo unspecified)
32.2 µM

[ask] Identify TGI associated with the molecule "Cc1ccn2c(CCc3nnc4cc(C)ccn34)nnc2c1"
[reply] > 100 µM

[ask] Identify TGI associated with the molecule O=C1NC(=O)/C(=C/c2ccc(S(=O)(=O)N/N=C\C(O)C(O)C(O)C(O)CO)cc2)N1 (stereo unspecified)
[reply] > 100 µM

[ask] Supply recorded TGI for "COc1ccc2c(c1)[n+]([O-])c(-c1ccc(C)cc1)c(N)[n+]2[O-]" here.
[reply] > 100 µM

[ask] Please give measured TGI of the following entry: "COc1ccc2c(Cl)cc(NC(=O)Nc3c(C)cccc3C)nc2c1"
[reply] > 100 µM

###

- Tested on: NCI/ADR-RES ovarian
- assay.explanation: NCI tumour cell line growth inhibition, 48 h
Where a SMILES comes first, the peptide text is derived from it. Residues, ends and D or L forms follow the SMILES beside them. *: point of attachment. Boc = CC(C)(C)OC(=O)*; OBn = c1ccc(CO*)cc1
TGI overview

Please review the following examples before continuing.
1. Cc1ccc(C(SCC(N)C(=O)O)(c2ccccc2)c2ccccc2)cc1 (stereo not given)
6.03 µM
2. O=[N+]([O-])/C(C(Cl)=C(Cl)Cl)=C(\Nc1ccccc1)n1nnc2ccccc21
> 100 µM
3. CC(C)CC(NC(=O)C(Cc1ccccc1)NC(=O)C(Cc1c[nH]c2ccccc12)NC(=O)CNC(=O)C(N)Cc1ccc(O)cc1)C(=O)O (stereo not given) (H-YGWFL-OH; configuration not given here)
> 100 µM
4. COCCN1CCN(Cc2ccc(-c3n[nH]c4c3C(=O)c3c(NC(=O)NN5CCOCC5)cccc3-4)cc2)CC1
> 10 µM
5. NC(=O)/C=c1/c2ccccc2n2nc3ccccc3c12
50.7 µM
6. CN(C)C=NCCN1CCOCC1
> 100 µM
7. COc1cc(S(=O)(=O)Nc2ccc(-c3csc(N4C(=O)C(Cl)C4c4ccccc4)n3)cc2)ccc1Cl (stereo not given)
> 100 µM
8. CCN(CC)CCCNc1nc(=O)[nH]c(C)c1C(=O)Nc1ccc2c(c1)c1ccccc1n2CC
> 100 µM
9. Cc1ccc(/C=C2\CCCC(CN(C)C)C2=O)cc1 (stereo not given)
17.1 µM
10. CC(C)CC(NC(=O)OC(C)(C)C)C(=O)N1CCCC1C(=O)OCc1ccccc1 (stereo not drawn) (Boc-Leu-Pro-OBn; configuration not given here)
> 100 µM

[ask] For "COc1cc(Nc2nnc3n2S(=O)(=O)c2cc(C)c(Cl)cc2S3)cc(OC)c1" , write its TGI.
[reply] > 100 µM

[ask] Read the entry Nc1nc2ccc(OCC(O)CN3CCCCC3)cc2[n+]([O-])n1 (stereo not given) and write its reported TGI.
[reply] > 100 µM

[ask] Using known records, supply TGI for C=CC(Br)(CBr)CCC(Br)C(C)(C)Cl (stereo not given)
[reply] 18.6 µM

[ask] Hello, please tell me recorded TGI for this one: "CC(C)(CCCCC(C)(C)C1NC(=O)N1)C1NC(=O)N1"
[reply] > 10 µM

[ask] Give recorded TGI. "Cc1cc2nc3cc(C)c(N)cc3[n+](-c3ccccc3)c2cc1N"
[reply] > 100 µM

[ask] Recall and state the measured TGI for COc1cc(C2C3=C(COC3=O)Nc3c2ccc2c3CCCC2)cc2c1OCO2 (stereo not given) .
[reply] 19.1 µM

[ask] State, in one line, measured TGI of "O=c1oc2ccc(Cl)cc2cc1-c1cn2ccccc2n1"
[reply] > 77.4 µM
